The reported measurements were obtained from ChEMBL document CHEMBL3112457.

# TEST_TARGET: Egl nine homolog 1 (Homo sapiens)
# EXPERIMENT: Inhibition of PHD2 (unknown origin)
QUANTITY_KIND: IC50

Request: I'd like to know its IC50. The molecule in question is O=C(O)c1cnn(-c2nc3cc(OC(F)(F)F)c(Cl)cc3[nH]2)c1
Response: 100 nM

====

# TEST_TARGET: Egl nine homolog 1 (Homo sapiens, UniProt Q9GZT9)
# Sequence (Q9GZT9 whole entry): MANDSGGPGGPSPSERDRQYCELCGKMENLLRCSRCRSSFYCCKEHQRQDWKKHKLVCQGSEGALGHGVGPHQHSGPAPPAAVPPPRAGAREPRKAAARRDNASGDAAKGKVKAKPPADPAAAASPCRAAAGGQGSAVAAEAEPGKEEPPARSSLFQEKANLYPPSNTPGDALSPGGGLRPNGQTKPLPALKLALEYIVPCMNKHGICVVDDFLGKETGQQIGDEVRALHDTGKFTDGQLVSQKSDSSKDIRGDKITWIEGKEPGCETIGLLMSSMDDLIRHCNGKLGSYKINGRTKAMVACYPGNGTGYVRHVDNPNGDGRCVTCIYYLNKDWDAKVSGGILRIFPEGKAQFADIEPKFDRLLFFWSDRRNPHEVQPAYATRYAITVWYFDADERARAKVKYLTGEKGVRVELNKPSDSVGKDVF
# EXPERIMENT: Inhibition of PHD2 (unknown origin) using P564 HIFlalpha as substrate after 1 hr by TR-FRET assay
QUANTITY_KIND: IC50 (nM)
Write it as a number; the unit nM goes unstated.

Request: I'd like to know its IC50. The compound in question is Cn1c(=O)c(C(=O)NCC(=O)O)c(O)c2sccc21
Response: 3

Request: I'd like to know its IC50. The compound in question is O=C(O)CNC(=O)C1=C(O)c2ccccc2C1=O
Response: 3

====

# TEST_TARGET: Prolyl hydroxylase EGLN3 (Homo sapiens, UniProt Q9H6Z9)
# Sequence (Q9H6Z9 whole entry): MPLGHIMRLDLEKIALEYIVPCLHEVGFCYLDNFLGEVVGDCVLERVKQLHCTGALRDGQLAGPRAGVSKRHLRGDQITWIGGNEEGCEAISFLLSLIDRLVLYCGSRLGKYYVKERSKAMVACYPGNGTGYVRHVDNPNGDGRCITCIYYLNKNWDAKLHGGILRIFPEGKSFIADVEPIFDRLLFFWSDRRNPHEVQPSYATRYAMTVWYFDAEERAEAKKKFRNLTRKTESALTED
# EXPERIMENT: Inhibition of 6His-tagged PHD3 (1 to 239) (unknown origin)-mediated Cy5CODD hydroxylation expressed in Escherichia coli after 30 mins
Record form. Attribute: IC50. Fill in for each entry.
Write it as a number; the unit nM goes unstated.

Request: I'd like to know its IC50. The molecule in question is O=C(O)CNC(=O)c1c(O)c2ccc(F)cc2n(Cc2ccccc2Cl)c1=O
Response: 20

Request: I'd like to know its IC50. The molecule in question is CC(C)(C)c1ccc(Cn2c(-c3c(Cl)cccc3Cl)nc(O)c(C(=O)NCC(=O)O)c2=O)cc1
Response: 0.8

Request: I'd like to know its IC50. The molecule in question is N#Cc1ccccc1Cn1c(=O)c(C(=O)NCC(=O)O)c(O)n(Cc2ccccc2)c1=O
Response: 0.8

Request: I'd like to know its IC50. The molecule in question is CC(C)(C)c1ccc(Cn2nc(-c3ccc(Cl)cc3)c(O)c(C(=O)NCC(=O)O)c2=O)cc1
Response: 0.8

====

# EXPERIMENT: Inhibition of prolyl hydroxylase (unknown origin) using biotin-labeled DLDLEMLAPYIPMDDDFQL as substrate after 60 mins by FRET assay
# Parameters: species or system Homo sapiens
QUANTITY_KIND: IC50 (nM)
Write it as a number; the unit nM goes unstated.

Request: I'd like to know its IC50. The molecule in question is N#Cc1cn(-c2c[nH]n(-c3cc(N4CC(F)(F)C4)ncn3)c2=O)nn1
Response: 70

====

# TEST_TARGET: Egl nine homolog 1 (Homo sapiens)
# EXPERIMENT: Inhibition of PHD2 in HEK293 cells assessed as VEGF release by immunoassay
QUANTITY_KIND: pEC50
Remember, pEC50 is on a log scale: it is -log10 of the molar concentration.

Request: I'd like to know its pEC50. The compound in question is CC(C)(C)OC(=O)N1CCN(Cc2ccn(Cc3ccc(Cl)cc3)c(=O)c2O)CC1
Response: 4.77

====

# TEST_TARGET: Egl nine homolog 1 (Homo sapiens)
# EXPERIMENT: Inhibition of FLAG-tagged full length PHD2 (unknown origin) expressed in Sf9 cells using HIF-1alpha peptide as substrate preincubated for 30 mins followed by substrate addition measured after 2 hrs by HTRF assay in presence of 2-oxoglutarate
QUANTITY_KIND: IC50 (nM)
Write it as a number; the unit nM goes unstated.

Request: I'd like to know its IC50. The compound in question is O=C(Cc1ccc2ccccc2c1)Nc1cnc(-n2cccn2)nc1O
Response: 0.7

Request: I'd like to know its IC50. The compound in question is Cc1cccc(CN2CCC3(CC2)C(=O)N(c2ccc(-c4ccccc4)cc2)c2ccc(C(=O)O)cc23)n1
Response: 0.7
